In this section, each of the compounds is paired with its reported GI50.
# Test system: BaF3 cell lines stably transfected with kinase EGFR L858R (Homo sapiens, UniProt P00533, L858R, cells depend on it)
# Sequence (P00533 whole entry L858R): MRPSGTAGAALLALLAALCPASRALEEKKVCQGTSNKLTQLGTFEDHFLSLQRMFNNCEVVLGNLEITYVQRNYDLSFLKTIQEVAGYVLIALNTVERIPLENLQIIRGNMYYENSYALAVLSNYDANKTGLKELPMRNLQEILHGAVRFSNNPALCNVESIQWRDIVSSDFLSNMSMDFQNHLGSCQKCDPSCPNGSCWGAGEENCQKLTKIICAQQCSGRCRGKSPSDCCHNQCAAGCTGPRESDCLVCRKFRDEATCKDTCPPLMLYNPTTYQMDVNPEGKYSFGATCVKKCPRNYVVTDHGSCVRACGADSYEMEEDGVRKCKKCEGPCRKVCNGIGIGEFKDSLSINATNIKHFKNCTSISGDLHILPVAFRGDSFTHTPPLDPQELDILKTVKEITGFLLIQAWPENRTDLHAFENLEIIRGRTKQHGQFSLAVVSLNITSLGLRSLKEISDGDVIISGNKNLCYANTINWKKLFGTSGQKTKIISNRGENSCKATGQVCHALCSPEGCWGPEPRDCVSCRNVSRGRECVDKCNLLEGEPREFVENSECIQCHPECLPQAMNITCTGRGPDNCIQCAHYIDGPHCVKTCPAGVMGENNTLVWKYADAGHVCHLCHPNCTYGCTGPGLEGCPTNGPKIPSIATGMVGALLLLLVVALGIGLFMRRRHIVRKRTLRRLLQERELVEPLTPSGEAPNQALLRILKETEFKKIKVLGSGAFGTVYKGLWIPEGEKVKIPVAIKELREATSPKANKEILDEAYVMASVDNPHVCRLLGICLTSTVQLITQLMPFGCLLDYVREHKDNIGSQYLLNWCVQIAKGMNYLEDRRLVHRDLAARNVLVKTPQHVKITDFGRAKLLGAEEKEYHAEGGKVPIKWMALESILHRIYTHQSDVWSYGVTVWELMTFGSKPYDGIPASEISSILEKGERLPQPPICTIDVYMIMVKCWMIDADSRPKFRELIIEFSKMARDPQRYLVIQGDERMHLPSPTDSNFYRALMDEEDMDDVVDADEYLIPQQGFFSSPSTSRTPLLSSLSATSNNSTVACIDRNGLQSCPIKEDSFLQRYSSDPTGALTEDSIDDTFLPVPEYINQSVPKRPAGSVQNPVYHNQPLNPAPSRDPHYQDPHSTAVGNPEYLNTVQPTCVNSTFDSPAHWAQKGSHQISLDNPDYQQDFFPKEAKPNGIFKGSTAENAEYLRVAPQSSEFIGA
# Assay method text: Growth inhibition of BaF3 cell line stably transfected with kinase EGFR L858R (MTS)
# Format: cell-based
# Conditions: 48 h, read-out: growth inhibitory activity IC50, L858R

Sample answers from the record:
Compound | GI50
C=Cc1cnc(Nc2cc(C(C)C)c(N3CCC(N4CCN(C)CC4)CC3)cc2OC)nc1Nc1ccc2nccnc2c1NS(C)(=O)=O [II-35] | 0.05 to 0.5 µM
C=Cc1cnc(Nc2cc(C3CC3)c(N3CCC(N4CCN(C)CC4)CC3)cc2OC)nc1Nc1ccc2nccnc2c1P(C)(C)=O [Compound I-17] | 0.05 to 0.5 µM
C=Cc1cnc(Nc2cc3c(cc2OC(F)(F)F)CCN(C)C3)nc1Nc1ccc2nccnc2c1N(C)S(C)(=O)=O [II-76] | 0.05 to 0.5 µM

Give GI50 for C=Cc1cnc(Nc2cc(CC)c(N3CCC(N4CCN(C)CC4)CC3)cc2OC(F)(F)F)nc1Nc1ccc2nccnc2c1P(C)(C)=O [Compound I-6]
≤ 0.05 µM

Give GI50 for C=C(C)c1cnc(Nc2cc(CC)c(N3CCC(N4CCN(C)CC4)CC3)cc2OC)nc1Nc1ccc2nccnc2c1N(C)S(C)(=O)=O [II-21]
≤ 0.05 µM
